I'd appreciate it if you could supply percent inhibition of viability values for the items below.
Tested on: normal primary NK cells, pool 3 (3 donors) (IL-2 2.5 ng/mL);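 also: normalised to DMSO-only wells as negative and benzethonium chloride as positive control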
Test: percent inhibition of viability; higher = more inhibition
Details: 72 h; 25 nM
Kindly provide the numeric value in % only, without the unit symbol.

Look up percent inhibition of viability for this compound: CCOc1cc2ncc(C#N)c(Nc3ccc(F)c(Cl)c3)c2cc1NC(=O)/C=C/CN(C)C [Pelitinib] (max concentration tested 2500 nM) 2.55

Look up percent inhibition of viability for this compound: CCCCCCCCCCCCCCCCCCOP(=O)([O-])OC1CC[N+](C)(C)CC1 [Perifosine] (max concentration tested 2500 nM) 0.44

Look up percent inhibition of viability for this compound: CCn1nnc2c(N3CCOCC3)nc(-c3ccc(NC(=O)Nc4ccc(C(=O)N5CCN(C)CC5)cc4)cc3)nc21 [PKI-402] (max concentration tested 2500 nM) 0.88
